Here the recorded IL-2 production, SEB-dependent PBMC stimulation test, 2 ug/ml, N = 2 is given for each entry.
# system_under_test: T1, human LAG-3 on cells (HEK293-hLAG-3 stable cell line) (human, UniProt P18627 23-525)
# T1 sequence: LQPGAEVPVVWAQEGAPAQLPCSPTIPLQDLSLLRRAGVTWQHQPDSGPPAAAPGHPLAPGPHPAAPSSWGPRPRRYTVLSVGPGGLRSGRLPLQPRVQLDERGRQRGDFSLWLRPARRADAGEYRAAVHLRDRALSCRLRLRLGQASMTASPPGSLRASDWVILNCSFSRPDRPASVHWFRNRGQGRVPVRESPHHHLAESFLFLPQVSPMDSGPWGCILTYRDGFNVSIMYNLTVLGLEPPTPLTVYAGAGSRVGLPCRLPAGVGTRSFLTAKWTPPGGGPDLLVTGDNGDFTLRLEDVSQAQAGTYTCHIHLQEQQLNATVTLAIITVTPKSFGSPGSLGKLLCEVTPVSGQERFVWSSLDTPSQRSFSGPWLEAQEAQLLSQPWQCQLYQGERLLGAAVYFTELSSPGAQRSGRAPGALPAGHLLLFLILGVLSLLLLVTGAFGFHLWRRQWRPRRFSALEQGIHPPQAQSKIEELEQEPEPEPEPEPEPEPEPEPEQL
# protocol_details: cell-based or functional assay
The answer is to be given in pg/mL; state only the numeric part.

For orientation, consider the following solved cases.
409D4E10 mouse-human chimeric antibody (antibody, V domains shown, also called mAb112-409D4E10) VH: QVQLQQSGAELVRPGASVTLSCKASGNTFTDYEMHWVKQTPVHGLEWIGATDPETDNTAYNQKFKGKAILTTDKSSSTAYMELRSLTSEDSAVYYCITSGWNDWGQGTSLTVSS VL: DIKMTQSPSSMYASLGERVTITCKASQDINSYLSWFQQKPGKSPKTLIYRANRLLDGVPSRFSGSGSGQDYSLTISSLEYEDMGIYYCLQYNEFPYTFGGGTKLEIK: 1940
405B8H3 mouse-human chimeric antibody (antibody, V domains shown, also called mAb103-405B8H3) VH: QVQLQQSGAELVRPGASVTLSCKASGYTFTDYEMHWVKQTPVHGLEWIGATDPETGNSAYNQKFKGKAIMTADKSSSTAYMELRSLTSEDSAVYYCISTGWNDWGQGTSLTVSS VL: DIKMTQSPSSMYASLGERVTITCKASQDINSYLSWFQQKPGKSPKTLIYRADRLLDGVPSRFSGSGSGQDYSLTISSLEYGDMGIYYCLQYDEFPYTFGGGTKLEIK: 2850
409B11E12 mouse-human chimeric antibody (antibody, V domains shown, also called mAb104-409B11E12) VH: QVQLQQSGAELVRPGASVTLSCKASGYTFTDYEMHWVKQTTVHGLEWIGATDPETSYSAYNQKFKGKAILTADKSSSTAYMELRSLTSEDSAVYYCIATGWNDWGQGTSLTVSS VL: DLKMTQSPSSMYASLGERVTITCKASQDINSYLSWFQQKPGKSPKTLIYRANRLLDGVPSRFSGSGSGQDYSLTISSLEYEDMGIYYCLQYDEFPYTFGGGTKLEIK: 1920

So what's the measured IL-2 production, SEB-dependent PBMC stimulation test, 2 ug/ml, N = 2 for this one? 556F6B8 mouse-human chimeric antibody (antibody, V domains shown, also called mAb123-556F6B8; 556F8B8) VH: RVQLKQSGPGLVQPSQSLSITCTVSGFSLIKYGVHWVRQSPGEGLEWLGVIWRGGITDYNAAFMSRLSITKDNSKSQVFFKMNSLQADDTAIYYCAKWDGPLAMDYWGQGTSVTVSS VL: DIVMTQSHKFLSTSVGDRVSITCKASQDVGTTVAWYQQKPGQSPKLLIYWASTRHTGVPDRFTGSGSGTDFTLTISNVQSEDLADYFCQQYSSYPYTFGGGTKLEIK 4010
